# tested.on: Prostaglandin E synthase (Homo sapiens)
# Sequence (O14684 whole entry): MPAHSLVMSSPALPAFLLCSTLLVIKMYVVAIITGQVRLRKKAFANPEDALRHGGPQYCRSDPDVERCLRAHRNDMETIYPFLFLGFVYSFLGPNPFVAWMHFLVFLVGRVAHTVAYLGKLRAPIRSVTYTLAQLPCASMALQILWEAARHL
# method.summary: Inhibition of mPGES-1 in human IL-1beta-stimulated A549 cell microsomes assessed as reduction of PGE2 formation from PGH2 after 15 mins
With a cut-off of 5 µM, any IC50 strictly below it is called rule met; any IC50 meeting it or above is called rule not met.

The following compounds have reported results that may help.
CCCCC(Sc1ccc(OCCCOc2ccc3ncccc3c2)cc1)C(=O)O (stereo unspecified) = rule not met
CCCCC(Sc1ccc(OCCCOc2ccccc2C(C)C)cc1)C(=O)O (stereo unspecified) = rule met
CCCCC(Sc1ccc(OCCCOc2ccccc2C)cc1)C(=O)O (stereo unspecified) = rule not met
CCCC/C(=C\c1ccc(OCCCOc2cccc(C)c2C)cc1)C(=O)O = rule not met
CCCCC(Sc1ccc(OCCCOc2cccc(C(F)(F)F)c2)cc1)C(=O)O (stereo unspecified) = rule met

is_below(IC50, 5 µM) for CCCCC(Sc1ccc(OCCCOc2ccc(-c3ccccc3)cc2)cc1)C(=O)O (stereo unspecified) ?
rule met

is_below(IC50, 5 µM) for CCCC[C@H](Sc1ccc(OCCCOc2cccc(C)c2C)cc1)C(=O)O ?
rule met

is_below(IC50, 5 µM) for Cc1cccc(OCCCOc2ccc(SCC(=O)O)cc2)c1C ?
rule not met

is_below(IC50, 5 µM) for CCCCC(Sc1ccc(OCCCOc2cccc(C)c2C)cc1)C(=O)O (stereo unspecified) ?
rule met

is_below(IC50, 5 µM) for CCCCC(Sc1ccc(OCCCOc2ccc(Cl)cc2OC)cc1)C(=O)O (stereo unspecified) ?
rule not met

is_below(IC50, 5 µM) for CCCCC(Cc1ccc(OCCCOc2cccc(C)c2C)cc1)C(=O)O (stereo unspecified) ?
rule not met

Attribution: ChEMBL document CHEMBL1777776
